Target: T1, PC7, Q16549
T1 chain: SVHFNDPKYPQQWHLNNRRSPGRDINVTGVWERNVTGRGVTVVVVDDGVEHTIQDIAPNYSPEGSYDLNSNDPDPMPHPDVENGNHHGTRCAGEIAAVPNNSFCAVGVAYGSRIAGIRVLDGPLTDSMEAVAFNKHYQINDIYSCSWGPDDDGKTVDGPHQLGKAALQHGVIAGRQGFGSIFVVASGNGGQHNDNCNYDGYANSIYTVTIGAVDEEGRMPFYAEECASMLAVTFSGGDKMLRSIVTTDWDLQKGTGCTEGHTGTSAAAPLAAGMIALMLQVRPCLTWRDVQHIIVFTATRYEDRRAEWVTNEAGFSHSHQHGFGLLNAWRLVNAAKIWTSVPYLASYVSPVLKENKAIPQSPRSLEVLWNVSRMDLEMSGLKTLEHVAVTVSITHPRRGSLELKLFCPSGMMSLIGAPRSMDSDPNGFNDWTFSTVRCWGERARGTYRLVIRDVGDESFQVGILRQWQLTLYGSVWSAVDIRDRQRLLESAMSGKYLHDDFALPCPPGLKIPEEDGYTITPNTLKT
Conditions: modification not given
MEASURED ATTRIBUTE: Ki (nM)
Record the value in nM, omitting the unit from your answer.

Item: QQVAKRRTKR [Furin propeptide fragment] | Ki: 500

Values were extracted from patent US7033991.
